These data points were gathered from patent US7084127B2.

# assay.target: human A3 receptor as expressed in HEK 293 cells (Homo sapiens)
# Construct: expressed in transfected cells; host or cells: HEK 293 cells (membrane suspension)
# Sequence (P0DMS8 whole entry): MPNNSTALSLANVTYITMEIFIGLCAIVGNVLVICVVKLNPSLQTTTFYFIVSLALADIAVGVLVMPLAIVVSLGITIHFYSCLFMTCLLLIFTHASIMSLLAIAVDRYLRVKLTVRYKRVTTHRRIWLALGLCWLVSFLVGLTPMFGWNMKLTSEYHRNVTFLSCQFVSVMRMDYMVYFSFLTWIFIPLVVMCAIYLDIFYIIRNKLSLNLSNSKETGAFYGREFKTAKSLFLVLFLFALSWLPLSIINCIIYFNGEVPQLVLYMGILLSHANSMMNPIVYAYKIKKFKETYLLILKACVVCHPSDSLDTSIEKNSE
# experimental.details: Radioligand binding, displacement of [125I]AB MECA, HEK 293 cell membranes
Known Ki of a selection of molecules
measured.property: Ki

molecule	endpoint.result
CCSC[C@H]1O[C@@H](n2cnc3c(N)nc(NN=CCC(C)C)nc32)[C@H](O)[C@@H]1O [Compound 46]	814 nM
CC(C)CC=NNc1nc(N)c2ncn([C@@H]3O[C@H](CO)[C@@H](O)[C@H]3O)c2n1 [Compound 3]	38.3 nM
CSC[C@H]1O[C@@H](n2cnc3c(N)nc(NN=CCC(C)C)nc32)[C@H](O)[C@@H]1O [Compound 45]	253 nM
CCCSC[C@H]1O[C@@H](n2cnc3c(N)nc(NN=CCC(C)C)nc32)[C@H](O)[C@@H]1O [Compound 47]	697 nM
CC(C)CC=NNc1nc(N)c2ncn([C@@H]3O[C@H](CSC(C)C)[C@@H](O)[C@H]3O)c2n1 [Compound 48]	409 nM
